I'd appreciate it if you could supply MIC values for the items below.
System: Proteus vulgaris HX-19
Assay: Antibacterial activity, agar-dilution MIC, organism No. 21
Assay type: cell-based
Settings: Proteus vulgaris, HX19; Organism No. 21, bouillon-agar; read-out: Minimum Inhibitory Concentration

Request: Find MIC (Proteus vulgaris HX-19) for the entry [C-]#[N+]C12CC3(/C=C/C(=O)Nc4ccccc4C)OC3C1O2 (stereo not drawn)
Result: < 0.05 µg/mL

Request: Tell me reported MIC for [C-]#[N+]C12CC3(/C=C/C(=O)Nc4ccccc4OC)OC3C1O2 (stereo not drawn) , tested with Proteus vulgaris HX-19.
Result: < 0.05 µg/mL

Request: Lab note: need MIC for [C-]#[N+]C12CC3(/C=C/C(=O)NCc4ccccc4)OC3C1O2 (stereo not drawn) on Proteus vulgaris HX-19, anyone have it?
Result: < 0.05 µg/mL

Request: Give recorded MIC with Proteus vulgaris HX-19 for the following molecule: [C-]#[N+]C12CC3(/C=C/C(=O)OCc4cccc(OC)c4)OC3C1O2 (stereo not drawn)
Result: < 0.1 µg/mL

Request: Request body: readout MIC, system Proteus vulgaris HX-19, query [C-]#[N+]C12CC3(/C=C/C(=O)Nc4ccc(Cl)cc4)OC3C1O2 (stereo not drawn) . Return the value.
Result: < 0.05 µg/mL

Request: Enter reported MIC observed with Proteus vulgaris HX-19 for [C-]#[N+]C12CC3(/C=C/C(=O)Nc4ccc(C)cc4)OC3C1O2 (stereo not drawn)
Result: < 0.05 µg/mL
